Values from paper PMC9482650

Would you mind telling me the reported pKd of each entry?
- target.desc: Inadl_9, Q8NI35
- Sequence (Q8NI35 1530-1615): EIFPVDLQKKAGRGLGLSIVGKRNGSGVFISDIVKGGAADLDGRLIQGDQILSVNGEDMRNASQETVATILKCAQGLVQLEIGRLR
- procedure.text: holdup assay
- Set-up: key: below the threshold = too weak to quantify, mostly under pKd 3.1 to 4
- condition.notes: plain residues with an end cap or a label only (N-terminal biotin on a linker: ado-ado)
Just the number, please, no unit attached.

Quickly give me recorded pKd for VDSTVKVWTC [TRAF7, Q6Q0C0]
3.68

Quickly give me recorded pKd for PDGQCTVTEV [RNF146, Q9NTX7]
3.72
